Data credit: BindingDB's records for doi:10.1016/j.bmcl.2020.127004

assay: Non-nucleoside inhibition of NS5B polymerase in HCV genotype 2b by Taqman probe based RT-PCR analysis
pEC50: −log10 of the molar value.
MEASUREMENT LABEL: pEC50

[
  {
    "STRUCTURE NOTATION": "CNC(=O)c1c(-c2ccc(F)cc2)oc2cc(N(C)S(C)(=O)=O)c(-c3ccc4ncn(Cc5ccccc5)c(=O)c4c3)cc12",
    "EXPERIMENTAL VALUE": 8.03
  },
  {
    "STRUCTURE NOTATION": "CNC(=O)c1c(-c2ccc(F)cc2)oc2cc(N(C)S(C)(=O)=O)c(-c3cc(OC)c4nnn(Cc5ccc(F)cc5)c(=O)c4c3)cc12",
    "EXPERIMENTAL VALUE": 8.51
  },
  {
    "STRUCTURE NOTATION": "CNC(=O)c1c(-c2ccc(F)cc2)oc2cc(N(C)S(C)(=O)=O)c(-c3ccc4nnn([C@H](COC)c5ccc(F)cc5)c(=O)c4c3)cc12",
    "EXPERIMENTAL VALUE": 8.41
  },
  {
    "STRUCTURE NOTATION": "CNC(=O)c1c(-c2ccc(F)cc2)oc2cc(N(C)S(C)(=O)=O)c(-c3cc4c(=O)n(Cc5ccc(F)cc5)nnc4cc3C)cc12",
    "EXPERIMENTAL VALUE": 8.33
  },
  {
    "STRUCTURE NOTATION": "CNC(=O)c1c(-c2ccc(F)cc2)oc2cc(N(C)S(C)(=O)=O)c(-c3cc4c(=O)n(Cc5ccc(F)cc5)nnc4cc3Cl)cc12",
    "EXPERIMENTAL VALUE": 8.06
  },
  {
    "STRUCTURE NOTATION": "CNC(=O)c1c(-c2ccc(F)cc2)oc2cc(N(C)S(C)(=O)=O)c(-c3ccc4nc(C)n([C@H](COC)c5ccc(F)cc5)c(=O)c4c3)cc12",
    "EXPERIMENTAL VALUE": 7.96
  }
]

----------
# maps each entry to its pEC50
assay: Non-nucleoside inhibition of NS5B polymerase S365A mutant in HCV genotype 1a by Taqman probe based RT-PCR analysis
pEC50: −log10 of the molar value.

[
  {
    "COMPOUND": "CNC(=O)c1c(-c2ccc(F)cc2)oc2cc(N(C)S(C)(=O)=O)c(-c3cc4c(=O)n(Cc5ccc(F)cc5)nnc4cc3Cl)cc12 [US9364482, 73]",
    "pEC50": 7.38
  },
  {
    "COMPOUND": "CNC(=O)c1c(-c2ccc(F)cc2)oc2cc(N(C)S(C)(=O)=O)c(-c3ccc4nnn(Cc5ccc(F)cc5)c(=O)c4c3)cc12 [US9364482, 44]",
    "pEC50": 7.12
  },
  {
    "COMPOUND": "CNC(=O)c1c(-c2ccc(F)cc2)oc2cc(N(C)S(C)(=O)=O)c(-c3ccc4nc(C)n(Cc5ccc(F)cc5OC)c(=O)c4c3)cc12",
    "pEC50": 6.75
  },
  {
    "COMPOUND": "CNC(=O)c1c(-c2ccc(F)cc2)oc2cc(N(C)S(C)(=O)=O)c(-c3cc4c(=O)n(Cc5ccc(F)cc5)nnc4cc3F)cc12 [US9364482, 70]",
    "pEC50": 7.33
  },
  {
    "COMPOUND": "CNC(=O)c1c(-c2ccc(F)cc2)oc2cc(N(C)S(C)(=O)=O)c(-c3ccc4nc(C)n(Cc5ccc(F)cc5F)c(=O)c4c3)cc12",
    "pEC50": 7.96
  },
  {
    "COMPOUND": "CNC(=O)c1c(-c2ccc(F)cc2)oc2cc(N(C)S(C)(=O)=O)c(-c3ccc4nnn(C(C)c5ccc(F)cc5)c(=O)c4c3)cc12 (stereo unspecified)",
    "pEC50": 6.56
  }
]

----------
# maps each entry to its pEC50
assay: Non-nucleoside inhibition of NS5B polymerase in HCV genotype 2a by Taqman probe based RT-PCR analysis
pEC50: −log10 of the molar value.

[
  {
    "STRUCTURE NOTATION": "CNC(=O)c1c(-c2ccc(F)cc2)oc2cc(N(C)S(C)(=O)=O)c(-c3ccc4nc(C)n(Cc5ccc(F)cc5OC)c(=O)c4c3)cc12",
    "pEC50": 7.89
  },
  {
    "STRUCTURE NOTATION": "CNC(=O)c1c(-c2ccc(F)cc2)oc2cc(N(C)S(C)(=O)=O)c(-c3ccc4nc(C)n(Cc5ccc(F)cn5)c(=O)c4c3)cc12",
    "pEC50": 7.96
  },
  {
    "STRUCTURE NOTATION": "CNC(=O)c1c(-c2ccc(F)cc2)oc2cc(N(C)S(C)(=O)=O)c(-c3cc4c(=O)n(Cc5ccc(F)cc5)nnc4cc3Cl)cc12",
    "pEC50": 7.82
  }
]

----------
assay: Non-nucleoside inhibition of NS5B polymerase in HCV genotype 2b by Taqman probe based RT-PCR analysis
Please note: EC50 exactly at 5 nM is f. Only values below 5 nM get t.

[
  {
    "COMPOUND": "CNC(=O)c1c(-c2ccc(F)cc2)oc2cc(N(C)S(C)(=O)=O)c(-c3ccc4nnn(C(CO)c5ccc(F)cc5)c(=O)c4c3)cc12 (stereo unspecified)",
    "CATEGORY": "f"
  },
  {
    "COMPOUND": "CNC(=O)c1c(-c2ccc(F)cc2)oc2cc(N(C)S(C)(=O)=O)c(-c3ccc4c(n3)C(=O)N(c3ccc(F)cc3)CO4)cc12 [US9364482, 2]",
    "CATEGORY": "f"
  },
  {
    "COMPOUND": "CNC(=O)c1c(-c2ccc(F)cc2)oc2cc(N(C)S(C)(=O)=O)c(-c3ccc4nnn(Cc5ccc(F)cn5)c(=O)c4c3)cc12 [US9364482, 48]",
    "CATEGORY": "f"
  },
  {
    "COMPOUND": "CNC(=O)c1c(-c2ccc(F)cc2)oc2cc(N(C)S(C)(=O)=O)c(-c3ccc4nc(C)n([C@@H](COC)c5ccc(F)cc5)c(=O)c4c3)cc12",
    "CATEGORY": "t"
  },
  {
    "COMPOUND": "CNC(=O)c1c(-c2ccc(F)cc2)oc2cc(N(C)S(C)(=O)=O)c(-c3ccc4nnn(Cc5ccc(F)cc5)c(=O)c4c3)cc12 [US9364482, 44]",
    "CATEGORY": "t"
  }
]

----------
experiment: Non-nucleoside inhibition of NS5B polymerase in HCV genotype 4a by Taqman probe based RT-PCR analysis
# maps each entry to its EC50

[
  {
    "MOLECULE": "CNC(=O)c1c(-c2ccc(F)cc2)oc2cc(N(C)S(C)(=O)=O)c(-c3ccc4c(n3)C(=O)N(c3ccc(F)cc3)CO4)cc12 [US9364482, 2]",
    "EC50 (nM)": 8.4
  },
  {
    "MOLECULE": "CNC(=O)c1c(-c2ccc(F)cc2)oc2cc(N(C)S(C)(=O)=O)c(-c3ccc4nnn(C(C)c5ccc(F)cc5)c(=O)c4c3)cc12 (stereo not drawn)",
    "EC50 (nM)": 1.1
  },
  {
    "MOLECULE": "CNC(=O)c1c(-c2ccc(F)cc2)oc2cc(N(C)S(C)(=O)=O)c(-c3ccc4nc(C)n(Cc5ccc(F)cc5)c(=O)c4n3)cc12 [US9364482, 68]",
    "EC50 (nM)": 2.9
  },
  {
    "MOLECULE": "CNC(=O)c1c(-c2ccc(F)cc2)oc2cc(N(C)S(C)(=O)=O)c(-c3ccc4nnn(Cc5ccccc5)c(=O)c4c3)cc12 [US9364482, 42]",
    "EC50 (nM)": 3
  },
  {
    "MOLECULE": "CNC(=O)c1c(-c2ccc(F)cc2)oc2cc(N(C)S(C)(=O)=O)c(-c3ccc4c(n3)C(=O)N(Cc3ccc(F)cc3)CO4)cc12 [US9364482, 6]",
    "EC50 (nM)": 0.3
  },
  {
    "MOLECULE": "CNC(=O)c1c(-c2ccc(F)cc2)oc2cc(N(C)S(C)(=O)=O)c(-c3ccc4nnn(Cc5ccc(F)cc5)c(=O)c4c3)cc12 [US9364482, 44]",
    "EC50 (nM)": 1.4
  },
  {
    "MOLECULE": "CNC(=O)c1c(-c2ccc(F)cc2)oc2cc(N(C)S(C)(=O)=O)c(-c3ccc4nnn(C(CO)c5ccc(F)cc5)c(=O)c4c3)cc12 (stereo not drawn)",
    "EC50 (nM)": 4.5
  },
  {
    "MOLECULE": "CNC(=O)c1c(-c2ccc(F)cc2)oc2cc(N(C)S(C)(=O)=O)c(-c3cc(C)c4nnn(Cc5ccc(F)cc5)c(=O)c4c3)cc12 [US9364482, 74]",
    "EC50 (nM)": 0.8
  },
  {
    "MOLECULE": "CNC(=O)c1c(-c2ccc(F)cc2)oc2cc(N(C)S(C)(=O)=O)c(-c3ccc4nc(C)n([C@H](COC)c5ccc(F)cc5)c(=O)c4c3)cc12",
    "EC50 (nM)": 2.4
  },
  {
    "MOLECULE": "CNC(=O)c1c(-c2ccc(F)cc2)oc2cc(N(C)S(C)(=O)=O)c(-c3ccc4nnn([C@H](COC)c5ccc(F)cc5)c(=O)c4c3)cc12 [US9364482, 39]",
    "EC50 (nM)": 0.7
  },
  {
    "MOLECULE": "CNC(=O)c1c(-c2ccc(F)cc2)oc2cc(N(C)S(C)(=O)=O)c(-c3ccc4nc(C)n(Cc5ccc(F)cc5OC)c(=O)c4c3)cc12",
    "EC50 (nM)": 2.2
  },
  {
    "MOLECULE": "CNC(=O)c1c(-c2ccc(F)cc2)oc2cc(N(C)S(C)(=O)=O)c(-c3ccc4nc(C)n([C@@H](COC)c5ccc(F)cc5)c(=O)c4c3)cc12",
    "EC50 (nM)": 0.6
  },
  {
    "MOLECULE": "CNC(=O)c1c(-c2ccc(F)cc2)oc2cc(N(C)S(C)(=O)=O)c(-c3ccc4nnn(Cc5ccc(F)cn5)c(=O)c4c3)cc12 [US9364482, 48]",
    "EC50 (nM)": 2.1
  },
  {
    "MOLECULE": "CNC(=O)c1c(-c2ccc(F)cc2)oc2cc(N(C)S(C)(=O)=O)c(-c3cc4c(=O)n(Cc5ccc(F)cc5)nnc4cc3C)cc12 [US9364482, 72]",
    "EC50 (nM)": 1
  },
  {
    "MOLECULE": "CNC(=O)c1c(-c2ccc(F)cc2)oc2cc(N(C)S(C)(=O)=O)c(-c3ccc4nnn([C@@H](COC)c5ccc(F)cc5)c(=O)c4c3)cc12 [US9364482, 41]",
    "EC50 (nM)": 6
  },
  {
    "MOLECULE": "CNC(=O)c1c(-c2ccc(F)cc2)oc2cc(N(C)S(C)(=O)=O)c(-c3ccc4nc(COC)n(Cc5ccc(F)cc5)c(=O)c4c3)cc12 [US9364482, 53]",
    "EC50 (nM)": 0.9
  },
  {
    "MOLECULE": "CNC(=O)c1c(-c2ccc(F)cc2)oc2cc(N(C)S(C)(=O)=O)c(-c3cc(OC)c4nnn(Cc5ccc(F)cc5)c(=O)c4c3)cc12 [US9364482, 71]",
    "EC50 (nM)": 0.4
  },
  {
    "MOLECULE": "CNC(=O)c1c(-c2ccc(F)cc2)oc2cc(N(C)S(C)(=O)=O)c(-c3ccc4nc(C)n(Cc5ccc(F)cc5)c(=O)c4c3)cc12 [US9364482, 55]",
    "EC50 (nM)": 0.6
  }
]
